Values from ChEMBL document CHEMBL2424540

Tested on: Aspergillus clavatus
Assay: Antifungal activity against Aspergillus clavatus MTCC 1323 at 50 mg/ml after 24 hrs by disk agar diffusion technique
Type: functional
Conditions: MTCC 1323, 24 h, read-out: DIZ
Quick rule: zone of inhibition at 50000 µg/mL of at least 20 mm means 1, below that means -1.

Check out these entries, answers already filled in.
[[record]]
molecule = "COc1cc2c(cc1OC)C(N1CCC(n3c(=O)n(CCCl)c4cc(Cl)ccc43)CC1)CC2 (stereo unspecified)"
label_value = -1

[[record]]
molecule = "CCOC(=O)n1c(=O)n(C2CCN(C3CCc4cc(OC)c(OC)cc43)CC2)c2ccc(Cl)cc21 (stereo unspecified)"
label_value = 1

[[record]]
molecule = "COc1cc2c(cc1OC)C(N1CCC(n3c(=O)n(Cc4ccccc4)c4cc(Cl)ccc43)CC1)CC2 (stereo unspecified)"
label_value = -1

[[record]]
molecule = "COc1cc2c(cc1OC)C(N1CCC(n3c(=O)n(Cc4ccc(Cl)cc4)c4cc(Cl)ccc43)CC1)CC2 (stereo unspecified)"
label_value = -1

[[record]]
molecule = "COCn1c(=O)n(C2CCN(C3CCc4cc(OC)c(OC)cc43)CC2)c2ccc(Cl)cc21 (stereo unspecified)"
label_value = -1


// next entry
Textbook exercise: given the entry CCOC(=O)Cn1c(=O)n(C2CCN(C3CCc4cc(OC)c(OC)cc43)CC2)c2ccc(Cl)cc21 (stereo unspecified) , state whether its zone of inhibition at 50000 µg/mL is greater than or equal to 20 mm.
-1

---

System: Aspergillus clavatus
Experiment: Antifungal activity against Aspergillus clavatus MTCC 1323 at 50 mg/ml after 24 hrs by disk agar diffusion technique
Format: functional
Conditions: MTCC 1323, 24 h, read-out: DIZ
assay_readout: zone of inhibition at 50000 µg/mL (mm)
Numbers only, in mm.

Worked cases, zone of inhibition at 50000 µg/mL given:
[[record]]
compound = "CCN(CC)C(=O)n1c(=O)n(C2CCN(C3CCc4cc(OC)c(OC)cc43)CC2)c2ccc(Cl)cc21 (centres undefined)"
result_unit = "mm"
recorded_value = 11

[[record]]
compound = "OC(Cn1cncn1)(Cn1cncn1)c1ccc(F)cc1F [FLUCONAZOLE]"
result_unit = "mm"
recorded_value = 24

[[record]]
compound = "COc1cc2c(cc1OC)C(N1CCC(n3c(=O)n(CCCN(C)C)c4cc(Cl)ccc43)CC1)CC2 (centres undefined)"
result_unit = "mm"
recorded_value = 10


Read the next record carefully.
Report zone of inhibition at 50000 µg/mL for COc1cc2c(cc1OC)C(N1CCC(n3c(=O)n(Cc4ccc([N+](=O)[O-])cc4)c4cc(Cl)ccc43)CC1)CC2 (centres undefined) please.
22

---

System: Staphylococcus aureus
Assay: Antibacterial activity against Staphylococcus aureus MTCC 96 at 50 mg/ml after 24 hrs by disk agar diffusion technique
Format: functional
Conditions: MTCC 96, 24 h, read-out: DIZ
Exercise: for every item that follows, state its recorded zone of inhibition at 50000 µg/mL.
Numbers only, in mm.

Worked cases, zone of inhibition at 50000 µg/mL given:
[[record]]
compound = "CC1(C)S[C@@H]2[C@H](NC(=O)[C@H](N)c3ccccc3)C(=O)N2[C@H]1C(=O)O"
assay_readout = "zone of inhibition at 50000 µg/mL"
recorded_value = 18

[[record]]
compound = "COCn1c(=O)n(C2CCN(C3CCc4cc(OC)c(OC)cc43)CC2)c2ccc(Cl)cc21 (stereo unspecified)"
assay_readout = "zone of inhibition at 50000 µg/mL"
recorded_value = 10

[[record]]
compound = "CCOC(=O)Cn1c(=O)n(C2CCN(C3CCc4cc(OC)c(OC)cc43)CC2)c2ccc(Cl)cc21 (stereo unspecified)"
assay_readout = "zone of inhibition at 50000 µg/mL"
recorded_value = 14

[[record]]
compound = "COc1cc2c(cc1OC)C(N1CCC(n3c(=O)n(Cc4ccc(Cl)cc4)c4cc(Cl)ccc43)CC1)CC2 (stereo unspecified)"
assay_readout = "zone of inhibition at 50000 µg/mL"
recorded_value = 17

[[record]]
compound = "COc1cc2c(cc1OC)C(N1CCC(n3c(=O)n(CCCl)c4cc(Cl)ccc43)CC1)CC2 (stereo unspecified)"
assay_readout = "zone of inhibition at 50000 µg/mL"
recorded_value = 18

[[record]]
compound = "COc1cc2c(cc1OC)C(N1CCC(n3c(=O)n(Cc4ccc([N+](=O)[O-])cc4)c4cc(Cl)ccc43)CC1)CC2 (stereo unspecified)"
assay_readout = "zone of inhibition at 50000 µg/mL"
recorded_value = 13

[[record]]
compound = "COc1cc2c(cc1OC)C(N1CCC(n3c(=O)n(CCCN(C)C)c4cc(Cl)ccc43)CC1)CC2 (stereo unspecified)"
assay_readout = "zone of inhibition at 50000 µg/mL"
recorded_value = 13

[[record]]
compound = "CCOC(=O)n1c(=O)n(C2CCN(C3CCc4cc(OC)c(OC)cc43)CC2)c2ccc(Cl)cc21 (stereo unspecified)"
assay_readout = "zone of inhibition at 50000 µg/mL"
recorded_value = 11


# return zone of inhibition at 50000 µg/mL for each item in the list
1. O=C(N[C@H](CO)[C@H](O)c1ccc([N+](=O)[O-])cc1)C(Cl)Cl
2. CCN(CC)C(=O)n1c(=O)n(C2CCN(C3CCc4cc(OC)c(OC)cc43)CC2)c2ccc(Cl)cc21 (stereo unspecified)
3. COc1cc2c(cc1OC)C(N1CCC(n3c(=O)n(Cc4ccccc4)c4cc(Cl)ccc43)CC1)CC2 (stereo unspecified)

21
20
11
